target: human GCG receptor (human, UniProt P47871 26-477); experiment: cell-based or functional assay
Sequence (P47871 26-477): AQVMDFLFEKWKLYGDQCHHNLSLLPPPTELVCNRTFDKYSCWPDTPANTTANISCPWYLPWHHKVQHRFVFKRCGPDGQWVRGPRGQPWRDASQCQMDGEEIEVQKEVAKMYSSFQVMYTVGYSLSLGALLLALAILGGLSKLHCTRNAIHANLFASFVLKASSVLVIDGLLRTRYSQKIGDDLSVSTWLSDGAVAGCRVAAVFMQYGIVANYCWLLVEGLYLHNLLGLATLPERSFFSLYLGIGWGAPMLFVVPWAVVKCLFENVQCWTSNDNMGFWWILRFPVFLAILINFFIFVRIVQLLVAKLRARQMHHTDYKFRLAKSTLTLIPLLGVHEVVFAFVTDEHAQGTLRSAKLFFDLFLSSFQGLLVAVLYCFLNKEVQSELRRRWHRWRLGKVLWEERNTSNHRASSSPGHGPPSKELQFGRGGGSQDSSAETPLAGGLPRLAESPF
Bridge positions count the residues as written; N and C are the ends. Square brackets hold non-standard residues; d marks the D form. Ends that are not written are not given here. * marks the point of attachment. Acetyl(2-(4-imidazolyl)) = O=C(Cc1c[nH]cn1)*; Aib = CC(C)(N)C(=O)O
Label t when In vitro activity compared to native peptide (%) vs Glucagon < 2%; otherwise f.

Task: State whether 2% exceeds In vitro activity compared to native peptide (%) vs Glucagon recorded for H[Aib]QGTFTSDYSKYLCEKRQKEFVQWLLNGGPSSGAPPPSG (bridge 16-20) [Triple agonist of SEQ ID NO: 36] .
Output: t

New cases:
Task: State whether 2% exceeds In vitro activity compared to native peptide (%) vs Glucagon recorded for Y[Aib]QGTFTSDYSKYLDECRAKEFVQWLLAQKGKKNDWKHNIT (bridge 16-20) [Triple agonist of SEQ ID NO: 23] .
Output: f

Task: Same thing, different binder: {Acetyl(2-(4-imidazolyl))}-[Aib]QGTFTSDYSICMDEIHQKDFVNWLLNTK (bridge 15-19) [Triple agonist of SEQ ID NO: 49]
Output: t

Task: Same thing, different binder: {Acetyl(2-(4-imidazolyl))}-[Aib]QGTFTSDCSKYLDERAAQDFVQWLLDGGPSSGAPPPS [Triple agonist of SEQ ID NO: 63]
Output: t

Task: Same thing, different binder: {Acetyl(2-(4-imidazolyl))}-GQGTFTSDLSIQYDSEHQRDFIEWLKDTGPSSGAPPPSHG [Triple agonist of SEQ ID NO: 19]
Output: t

Task: Same thing, different binder: {Acetyl(2-(4-imidazolyl))}-[Aib]EGTFTSDYSIAMDEIHQKDFVNWLLAQC (bridge 15-19) [Triple agonist of SEQ ID NO: 83]
Output: t

Task: Same thing, different binder: H[Aib]QGTFTSDVSSYLDGQAAKEFVAWLLKGC [Triple agonist of SEQ ID NO: 6]
Output: t

Task: Same thing, different binder: Y[Aib]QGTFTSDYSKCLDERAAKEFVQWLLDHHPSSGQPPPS (bridge 16-20) [Triple agonist of SEQ ID NO: 69]
Output: f

Task: Same thing, different binder: H[Aib]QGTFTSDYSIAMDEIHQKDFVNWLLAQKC (bridge 16-20) [Triple agonist of SEQ ID NO: 33]
Output: t

Task: Same thing, different binder: H[Aib]QGTFTSDYSKYLDEKACKEFVQWLLAQ (bridge 16-20) [Triple agonist of SEQ ID NO: 31]
Output: f

Task: Same thing, different binder: H[Aib]QGTFTSDYSKYLDEKRAQEFVCWLLAQKGKKNDWKHNIT [Triple agonist of SEQ ID NO: 28]
Output: t

Task: Same thing, different binder: {Acetyl(2-(4-imidazolyl))}-[Aib]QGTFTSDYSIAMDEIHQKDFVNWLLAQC (bridge 15-19) [Triple agonist of SEQ ID NO: 85]
Output: t

Task: Same thing, different binder: H[Aib]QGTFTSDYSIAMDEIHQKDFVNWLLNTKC (bridge 16-20) [Triple agonist of SEQ ID NO: 35]
Output: t
